Listed next: entries and their corresponding logP.
test: log P by HPLC on a reversed-phase column (C 18), EEC Directive 79/831 Annex V.A8; type: physicochemical; settings: HPLC reversed-phase C 18, 40° C., 0.1% aqueous formic acid and acetonitrile, linear gradient 10% to 95% acetonitrile
Experimental readout: logP

INSERT INTO assay_data (smiles_repr, val) VALUES
  ('Cc1cncc(-c2ccccc2Nc2cc3ccc(F)c(F)c3nc2C)c1', 1.99),
  ('Cc1nc2c(F)c(F)ccc2cc1Nc1cccc(F)c1-c1ccnc(F)c1Cl', 3.98),
  ('Cc1nc2c(F)c(F)ccc2nc1Nc1cccc(F)c1-c1ccncc1F', 2.98),
  ('CCOc1ccc(-c2ccccc2Nc2cc3ccc(F)c(F)c3nc2C)cn1', 4.02),
  ('Cc1nc2c(F)c(F)ccc2cc1Nc1cccc(F)c1-c1cncnc1', 2.61),
  ('Cc1cc(-c2c(F)cccc2Nc2cc3ccc(F)c(F)c3nc2C)cnc1F', 3.75),
  ('Cc1nc2c(F)c(F)ccc2cc1Nc1ccccc1-c1ccnnc1', 2.28),
  ('Cc1nc2c(F)c(F)ccc2cc1Nc1ccccc1-c1cccc(Cl)n1', 4.97),
  ('Cc1nc2c(F)c(F)ccc2cc1Nc1cccc(F)c1-c1ccncc1C1CC1', 2.49),
  ('Cc1nc2c(F)c(F)ccc2cc1Nc1cccc(F)c1-c1cc(F)cnc1Cl', 3.87),
  ('COc1ncccc1-c1c(F)cccc1Cc1cc2ccc(F)c(F)c2nc1C', 3.79),
  ('COc1ccc(-c2ccccc2Nc2cc3ccc(F)c(F)c3nc2C)c(OC)n1', 4.62);
